method_description: cAMP Responsive Elements (CRE) small molecule agonists, cell-based qHTS assay: qHTS cell viability counter screen (AID 2060914);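 also: viability read after 3 h of compound exposure; % is scaled to controls: 0 for no effect and ±100 for the full control effect; nearly all actives have a fitted effect of over 50% in size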
condition_info: CRE-bla HEK293T viability, CellTiter-Glo luminescence, 5 h; series mostly up to 92.4 µM
Results filed as inconclusive are left out. Active and inactive are the calls of the source. Calls follow the shape of the dose curve; as a rule, active = well fitted cell-killing curve with a large enough effect in the repeat runs; inconclusive = weak or mixed curves, or effect the other way; inactive = flat fitted curve, though single readings scatter.
endpoint_label: activity change, negative = cytotoxicity

Recorded results for 4 compounds are shown here.
O=C(O)/C=C/c1cnc[nH]1    inactive
O=C1OC(=O)C2CCCCC12 (centres undefined)    inactive
Cc1occc1SSc1ccoc1C    inactive
CC(C)CCOC(=O)c1ccc(N(C)C)cc1    inactive

Recorded activity change, negative = cytotoxicity of CCCOCCOCCOCCO , please. inactive

Give the measured activity change, negative = cytotoxicity of CC(C)Cc1ccc(C(C)C(=O)OCc2ccccn2)cc1 (centres undefined) . inactive

Request the reported activity change, negative = cytotoxicity associated with CCOc1ccc2[nH]cc(C(=O)NCc3ccccc3)c(=O)c2n1 inactive

* * *

method_description: cAMP Responsive Elements (CRE) small molecule antagonists, cell-based qHTS assay: qHTS cell viability counter screen (AID 2060913); also: % is scaled to controls: 0 for no effect and ±100 for the full control effect; nearly all actives have a fitted effect of over 40% in size
condition_info: CRE-bla HEK293T viability, CellTiter-Glo luminescence, 5 h; series mostly up to 92.4 µM
Inconclusive results are not listed. Active and inactive are the calls of the source. Calls come from the whole dose curve; as a rule, active = well fitted cell-killing curve with a large enough effect in the repeat runs; inconclusive = weak or mixed curves, or effect the other way; inactive = flat fitted curve, though single readings scatter.
endpoint_label: viability change, negative = cytotoxic

CCC(CO)CO    inactive
O=C1c2cccc(O)c2C(=O)c2c(O)cc(CO)cc21    inactive
CCOC(=O)O[C@]1(C(=O)OCCl)CC[C@H]2[C@@H]3CCC4=CC(=O)C=C[C@]4(C)[C@H]3[C@@H](O)C[C@@]21C    inactive
O=[N+]([O-])C(CO)(CO)CO    inactive
Nc1ccc2c(c1)CN1C(=O)c3ccccc3C1=N2    -16.9% [at 18.9 µM] (inactive)

// switching to the query molecule
Which measured viability change, negative = cytotoxic value corresponds to O=C(O)c1ccccc1C(=O)OCc1ccccc1 ? inactive

* * *

method_description: cAMP Responsive Elements (CRE) small molecule agonists, cell-based qHTS assay: qHTS cell viability counter screen (AID 2060914);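 also: viability read after 3 h of compound exposure; % is scaled to controls: 0 for no effect and ±100 for the full control effect; nearly all actives have a fitted effect of over 50% in size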
condition_info: CRE-bla HEK293T viability, CellTiter-Glo luminescence, 5 h; series mostly up to 92.4 µM
Records with an inconclusive call do not appear. Activity calls are given as the source filed them. Calls come from the whole dose curve; as a rule, active = well fitted cell-killing curve with a large enough effect in the repeat runs; inconclusive = weak or mixed curves, or effect the other way; inactive = flat fitted curve, though single readings scatter.
endpoint_label: activity change, negative = cytotoxicity

CC1CCN(CCCC(=O)c2ccc(F)cc2)CC1    inactive
NC(=O)c1ccncc1    inactive
CCC(=O)c1c(O)cc(O)cc1O    inactive
Cc1[nH]cnc1CN1CCc2c(c3ccccc3n2C)C1=O    inactive
C#CC(C)N(C)C(=O)Nc1ccc(Cl)cc1 (stereo not given)    inactive
O=C(C1CCCCC1)N1CC(=O)N2CCc3ccccc3C2C1 (stereo not given)    inactive
CN1[C@@H]2CC[C@H]1CC(OC(=O)C(O)c1ccccc1)C2 (stereo not given in full)    inactive
CCNC(=O)[C@@H]1CCCN1C(=O)[C@H](CCCN=C(N)N)NC(=O)[C@H](CC(C)C)NC(=O)CNC(=O)[C@H](Cc1ccc(O)cc1)NC(=O)[C@H](CO)NC(=O)[C@H](Cc1c[nH]c2ccccc12)NC(=O)[C@H](Cc1cnc[nH]1)NC(=O)[C@@H]1CCC(=O)N1    inactive

I am curious: what activity change, negative = cytotoxicity value has been reported for C[C@H](NC(CCc1ccccc1)C(=O)O)C(=O)N1CCC[C@H]1C(=O)O (stereo not given in full) ? inactive

Which measured activity change, negative = cytotoxicity value corresponds to NC(=O)N1c2ccccc2CC(=O)c2ccccc21 ? inactive

Would you kindly share the measured activity change, negative = cytotoxicity for C[C@@H](C1=C(CCN(C)C)Cc2ccccc21)c1ccccn1 ? inactive

Tell me the measured activity change, negative = cytotoxicity of CCCCCCCCCCCCOC(=O)c1ccc(O)cc1 , please. inactive
